assayTarget: human V1a receptor (Homo sapiens (Human), UniProt P37288)
Sequence (P37288 whole entry): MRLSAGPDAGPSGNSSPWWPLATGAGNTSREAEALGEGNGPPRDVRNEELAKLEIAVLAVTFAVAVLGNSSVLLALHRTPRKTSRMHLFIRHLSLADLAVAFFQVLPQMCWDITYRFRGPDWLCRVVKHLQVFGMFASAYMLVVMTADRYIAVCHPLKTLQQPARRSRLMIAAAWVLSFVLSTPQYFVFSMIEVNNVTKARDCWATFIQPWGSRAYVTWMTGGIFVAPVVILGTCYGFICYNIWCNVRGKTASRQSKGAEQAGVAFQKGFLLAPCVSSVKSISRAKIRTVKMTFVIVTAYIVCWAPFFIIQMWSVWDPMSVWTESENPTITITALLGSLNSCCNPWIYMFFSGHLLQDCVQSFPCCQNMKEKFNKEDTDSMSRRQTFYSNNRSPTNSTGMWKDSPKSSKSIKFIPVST
measurementNotes: human V1a receptor binding studies (3H-Vasopressin, SPA beads)
experimentalConditions: membranes of HEK293 cells transiently transfected with human V1a receptor, Ki by Cheng-Prussoff
experimentalEndpoint: pKi hV1a
A bare number is all that is needed in reply.

Tell me its pKi hV1a given "O=C1N=C(N2CCC3(CC2)OCc2ccccc23)SC1=C(c1ccc[nH]1)c1ccc[nH]1" as the entry.
9.0

Tell me its pKi hV1a given "O=C1N=C(N2CCC3(CC2)OC(=O)c2ccccc23)S/C1=C(\CO)c1ccc(Cl)nc1" as the entry.
8.0

Tell me its pKi hV1a given "[2H]C([2H])([2H])/C(=C1\SC(N2CCC3(CC2)OCc2ccccc23)=NC1=O)c1ccccc1" as the entry.
8.7

Tell me its pKi hV1a given C/C(=C1/SC(N2CCC3(CC2)OCc2ccccc23)=NC1=O)c1ccc(Cl)cc1 [Example 1] as the entry.
8.9

Tell me its pKi hV1a given "C/C(=C1/SC(N2CCC3(CC2)OCc2ccccc23)=NC1=O)c1ccnc(Cl)c1" as the entry.
8.6

Tell me its pKi hV1a given "CC/C(=C1\SC(N2CCC3(CC2)OC(=O)c2ccccc23)=NC1=O)c1ccc(Cl)nc1" as the entry.
8.2

Tell me its pKi hV1a given "C/C(=C1/SC(N2CCC3(CC2)OCc2ccccc23)=NC1=O)c1cccn1C" as the entry.
9.1

Tell me its pKi hV1a given "C/C(=C1/SC(N2CCC3(CC2)OCc2ncccc23)=NC1=O)c1oc(C)nc1C" as the entry.
6.5

Tell me its pKi hV1a given CC/C(=C1/SC(N2CCC3(CC2)OCc2ccccc23)=NC1=O)c1ccc(Cl)cc1 [Example 24] as the entry.
9.1

Tell me its pKi hV1a given "[2H]C([2H])([2H])/C(=C1\SC(N2CCC3(CC2)OCc2ccccc23)=NC1=O)c1ccc(Cl)nc1" as the entry.
8.9

Tell me its pKi hV1a given "C/C(CS(C)(=O)=O)=C1/SC(N2CCC3(CC2)OCc2ccccc23)=NC1=O" as the entry.
7.0

Tell me its pKi hV1a given C/C(=C1/SC(N2CCC3(CC2)OCc2ccccc23)=NC1=O)c1ccccc1F [Example 40] as the entry.
8.9

Tell me its pKi hV1a given "O=C1N=C(N2CCC3(CC2)OC(=O)c2ccccc23)SC1=C(C1CC1)C1CC1" as the entry.
8.5

Tell me its pKi hV1a given "C/C(=C1/SC(N2CCC3(CC2)OCc2ccccc23)=NC1=O)c1cc(C)on1" as the entry.
8.4

----------
assayTarget: human V1a receptor (Homo sapiens (Human))
measurementNotes: human V1a receptor binding studies (3H-Vasopressin, SPA beads)
experimentalConditions: membranes of HEK293 cells transiently transfected with human V1a receptor, Ki by Cheng-Prussoff
Answer 0 if pKi hV1a is under 8, and 1 if it is 8 or more.

{"structureNotation": "C/C(=C1/SC(N2CCC3(CC2)OCc2ccccc23)=NC1=O)C1CCCC1", "assignedCategory": 1}
{"structureNotation": "C/C(=C1/SC(N2CCC3(CC2)OCc2ccccc23)=NC1=O)c1ccccn1", "assignedCategory": 1}
{"structureNotation": "[2H]C([2H])([2H])/C(=C1/SC(N2CCC3(CC2)OCc2ccccc23)=NC1=O)c1ccc(Cl)nc1", "assignedCategory": 1}
{"structureNotation": "C/C(=C1/SC(N2CCC3(CC2)OCc2ccccc23)=NC1=O)c1cccnc1", "assignedCategory": 1}
{"structureNotation": "C/C(=C1/SC(N2CCC3(CC2)OCc2ncccc23)=NC1=O)c1cccnc1", "assignedCategory": 0}
{"structureNotation": "C/C(=C1\\SC(N2CCC3(CC2)OCc2ccccc23)=NC1=O)c1c(C)noc1C", "assignedCategory": 0}
{"structureNotation": "O=C1N=C(N2CCC3(CC2)OCc2ccccc23)SC1=C(c1ccccn1)c1ccccn1", "assignedCategory": 0}
{"structureNotation": "CC(=O)OCC(COC(C)=O)=C1SC(N2CCC3(CC2)OCc2ccccc23)=NC1=O", "assignedCategory": 1}

pKi hV1a >= 8 for "C/C(=C1/SC(N2CCC3(CC2)OCc2ccccc23)=NC1=O)c1cnc[nH]1" ?
0

pKi hV1a >= 8 for "C/C(=C1/SC(N2CCC3(CC2)OCc2ccccc23)=NC1=O)C1CC1" ?
1

pKi hV1a >= 8 for "O=C1N=C(N2CCC3(CC2)OCc2ccccc23)S/C1=C1\C=CCC1" ?
0

pKi hV1a >= 8 for "O=C1N=C(N2CCC3(CC2)OCc2ccccc23)SC1=C1CCCC1" ?
1

pKi hV1a >= 8 for "O=C1N=C(N2CCC3(CC2)OCc2ccccc23)SC1=C1c2ccccc2CCc2ccccc21" ?
1

pKi hV1a >= 8 for "O=C1N=C(N2CCC3(CC2)OCc2ccccc23)SC1=C1CCC1" ?
0

pKi hV1a >= 8 for "C/C(=C1/SC(N2CCC3(CC2)OCc2ccccc23)=NC1=O)c1sc(C)nc1C" ?
1

pKi hV1a >= 8 for "O=C1N=C(N2CCC3(CC2)OCc2ccccc23)SC1=C(C(F)(F)F)C(F)(F)F" ?
0

pKi hV1a >= 8 for "CC(C)/C(=C1\SC(N2CCC3(CC2)OC(=O)c2ccccc23)=NC1=O)c1ccc(Cl)nc1" ?
0

pKi hV1a >= 8 for "O=C1N=C(N2CCC3(CC2)OCc2ccccc23)SC1=C1c2ccccc2C=Cc2ccccc21" ?
1

pKi hV1a >= 8 for "O=C1N=C(N2CCC3(CC2)OCc2ccccc23)S/C1=C(\CO)c1ccccc1" ?
1

----------
assayTarget: human V1a receptor (Homo sapiens (Human))
measurementNotes: human V1a receptor binding studies (3H-Vasopressin, SPA beads)
experimentalConditions: membranes of HEK293 cells transiently transfected with human V1a receptor, Ki by Cheng-Prussoff
Procedure: The human V1a receptor was cloned by RT-PCR from total human liver RNA. The coding sequence was subcloned in an expression vector after sequencing to confirm the identity of the amplified sequence. […] Cell membranes were prepared from HEK293 cells transiently transfected with the expression vector and grown in 20 liter fermenters with the following protocol. […]
Answer -1 if pKi hV1a is under 8, and 1 if it is 8 or more.

Example entries and their recorded answers appear below.
{"compound": "CC/C(=C1/SC(N2CCC3(CC2)OC(=O)c2ccccc23)=NC1=O)c1ccc(Cl)nc1", "assignedCategory": 1}
{"compound": "O=C1N=C(N2CCC3(CC2)OCc2ccccc23)S/C1=C\\c1cccnc1", "assignedCategory": -1}
{"compound": "CC(C)(C)[Si](C)(C)OC/C(=C1/SC(N2CCC3(CC2)OC(=O)c2ccccc23)=NC1=O)c1ccccc1", "assignedCategory": 1}
{"compound": "[2H]C([2H])([2H])/C(=C1/SC(N2CCC3(CC2)OCc2ccccc23)=NC1=O)c1ccccc1", "assignedCategory": 1}
{"compound": "O=C1N=C(N2CCC3(CC2)OCc2ccccc23)S/C1=C\\c1ccccn1", "assignedCategory": -1}
{"compound": "CS(=O)(=O)N1CCC(=C2SC(N3CCC4(CC3)OCc3ccccc34)=NC2=O)CC1", "assignedCategory": -1}

pKi hV1a >= 8 for "C/C(=C1\SC(N2CCC3(CC2)OCc2ccccc23)=NC1=O)c1ccccc1F" ?
1

pKi hV1a >= 8 for "O=C1N=C(N2CCC3(CC2)OCc2ccccc23)SC1=C(c1ccc(Cl)cc1)c1ccc(Cl)cc1" ?
-1

pKi hV1a >= 8 for "C/C(=C1\SC(N2CCC3(CC2)OCc2ccccc23)=NC1=O)c1ccncc1" ?
-1

pKi hV1a >= 8 for C/C(=C1/SC(N2CCC3(CC2)OCc2ccccc23)=NC1=O)c1ccc(Cl)cc1 [Example 26] ?
1

pKi hV1a >= 8 for "C/C(=C1/SC(N2CCC3(CC2)OCc2ccccc23)=NC1=O)C(F)(F)F" ?
1

----------
assayTarget: human V1a receptor (Homo sapiens (Human))
measurementNotes: human V1a receptor binding studies (3H-Vasopressin, SPA beads)
experimentalConditions: membranes of HEK293 cells transiently transfected with human V1a receptor, Ki by Cheng-Prussoff
Each entry below carries its recorded pKi hV1a.
A bare number is all that is needed in reply.

{"structureNotation": "CC(C)(C)OC(=O)N1CCC/C(=C2/SC(N3CCC4(CC3)OCc3ccccc34)=NC2=O)CC1", "assayTarget": "human V1a receptor (Homo sapiens (Human))", "pKi hV1a": 7.1}
{"structureNotation": "C/C(=C1/SC(N2CCC3(CC2)OCc2ccccc23)=NC1=O)c1ccc[nH]1", "assayTarget": "human V1a receptor (Homo sapiens (Human))", "pKi hV1a": 9.2}
{"structureNotation": "CC(C)/C(=C1\\SC(N2CCC3(CC2)OCc2ccccc23)=NC1=O)c1ccc(Cl)cc1", "assayTarget": "human V1a receptor (Homo sapiens (Human))", "pKi hV1a": 7.8}
{"structureNotation": "O=C1N=C(N2CCC3(CC2)OCc2ccccc23)SC1=C1CCS(=O)(=O)CC1", "assayTarget": "human V1a receptor (Homo sapiens (Human))", "pKi hV1a": 8.0}
{"structureNotation": "CC/C(=C1\\SC(N2CCC3(CC2)OCc2ccccc23)=NC1=O)c1ccncc1", "assayTarget": "human V1a receptor (Homo sapiens (Human))", "pKi hV1a": 7.9}

Tell me its pKi hV1a given "C/C(=C1/SC(N2CCC3(CC2)OCc2ccccc23)=NC1=O)c1ncc[nH]1" as the entry.
6.8

Tell me its pKi hV1a given "O=C1N=C(N2CCC3(CC2)OCc2ccccc23)S/C1=C1/CCNC(=O)c2cc(Cl)ccc21" as the entry.
8.7

Tell me its pKi hV1a given "O=C1N=C(N2CCC3(CC2)OCc2ccccc23)S/C1=C1/CCc2ccccc21" as the entry.
8.3
